target: HLA-A*02:02; experiment: IEDB peptide-MHC binding, purified MHC/competitive/radioactivity; bounds were set here for any values at or beyond the usual limits of such assays; conditions: source organism: Vaccinia virus WR
pIC50: −log10 of the molar value.
Reported pIC50 values follow for various sequences
OBSERVATION_TYPE: pIC50

INSERT INTO results (sequence, observation_type, reported_value) VALUES
  ('DVQRTRCKYV', 'pIC50', 5.97),
  ('DQLVFNSISA', 'pIC50', 6.69),
  ('MAGVEVRYI', 'pIC50', 6.53),
  ('TLLIKTLSPA', 'pIC50', 9.00),
  ('TITTFIPISA', 'pIC50', 5.39),
  ('MQKFTILEYL', 'pIC50', 6.79),
  ('KVLSIMAFIL', 'pIC50', 8.64),
  ('KTIISEEYL', 'pIC50', 6.04),
  ('DLLNVTYNI', 'pIC50', 6.53),
  ('LLGLILFVL', 'pIC50', 6.58),
  ('IQYRQQLEL', 'pIC50', 6.29);
